- Protocol Text: protein stability index of a GFP-peptide fusion (yeast GPS) (PSI 1-4); higher = more stable; sorted into four equal gates, so the index is relative within each strain
- Condition Notes: ubr1∆
Property Measured: protein stability index

INSERT INTO results (primary_sequence, obs_value) VALUES
  ('YTEFIDSFIEKIIPKDI [ITC1]', 1.81),
  ('ALEFVSLLLSSVKESTG [SRB4]', 1.24),
  ('NQFLKIKKKRKELFEKT [SMC1]', 3.29),
  ('PSGRTRGRSVMKESVVE [ESC2]', 3.67),
  ('KPPTQKTDTKVSFRTHN [SRP21]', 2.7),
  ('KIPILAQHESFLRQKIC [RPN9]', 2.14),
  ('FGINTNTTKTADTKAPT [YLR335W/NUP2]', 3.5),
  ('IHLYMLTFHTLKKANII [YLR018C/POM34]', 1.09),
  ('NLDFDPRDVIKGKDFEI [FAS1]', 3.46),
  ('VKVKVSYQKLLKNYVLN [PRP8]', 1.63),
  ('DIDDILKKGEQKTQELN [ISW2]', 3.56),
  ('HTLDIINVLTDQNPIQV [RPS5]', 1.86),
  ('PLAKKQTVRLIKDLQRA [SIR2]', 2.97),
  ('YNILGNLGIPKIAYRGV [SSN2]', 1.89);

Each recorded value in this set is attributed to the supplement of paper PMC9732359.
